System: Key Grass and Sedge Weeds as well as Grass Crops
ASSAY EXPLANATION: Post-Emergent Test II (Table 6)
Format: in vivo
EXPERIMENTAL CONDITIONS: post-emergence, 336 h, CYPSS, 70 g ai/ha, 14 days after application, read-out: Visual Growth Reduction (%) 14 Days After Application CYPSS
Method: Seeds or nutlets of the desired test plant species were planted in Sun Gro Metro-Mix® 360 planting mixture, which typically has a pH of 6.0 to 6.8 and an organic matter content of about 30 percent, in plastic pots with a surface area of 64 square centimeters. […] A weighed amount, determined by the highest rate to be tested, of each test compound was placed in a 25 mL glass vial and was dissolved in 4 mL of a 97:3 v/v mixture of acetone and DMSO to obtain concentrated stock solutions. […]
OBSERVABLE: pest or weed control at 70 g/ha

Some compounds with recorded pest or weed control at 70 g/ha:
{"SMILES DATA": "COc1c(N)nc(-c2ccc(C(F)(F)F)nc2)nc1C(=O)O", "ASSAY SYSTEM": "Key Grass and Sedge Weeds as well as Grass Crops", "pest or weed control at 70 g/ha": "0 to 29%"}
{"SMILES DATA": "Cc1c(-c2nc(C(=O)O)c(Cl)c(N)c2F)ccc(C(F)(F)F)c1F", "ASSAY SYSTEM": "Key Grass and Sedge Weeds as well as Grass Crops", "pest or weed control at 70 g/ha": "0 to 29%"}
{"SMILES DATA": "COC(=O)c1nc(-c2ccc(Cl)c(F)c2CF)cc(N)c1Cl", "ASSAY SYSTEM": "Key Grass and Sedge Weeds as well as Grass Crops", "pest or weed control at 70 g/ha": "45 to 59%"}
{"SMILES DATA": "Nc1cc(-c2ccc(Cl)c(Cl)c2Cl)nc(C(=O)O)c1Cl", "ASSAY SYSTEM": "Key Grass and Sedge Weeds as well as Grass Crops", "pest or weed control at 70 g/ha": "0 to 29%"}

Now for another entry.
Exercise: Give recorded pest or weed control at 70 g/ha with Key Grass and Sedge Weeds as well as Grass Crops for the following compound: "COC(=O)c1nc(-c2ccc(Cl)c(F)c2OC)nc(N)c1OC"
Solution: 0 to 29%

###

Below is a list of entries, each paired with its recorded melting point value.

Please review the entries below; each comes with its answer.
{"SMILES DATA": "COC(=O)c1nc(-c2ccc(C)nc2F)c(F)c(N)c1Cl", "melting point": "165 to 166 °C"}
{"SMILES DATA": "COC(=O)c1nc(-c2ccc(Cl)c(F)c2C)c(Cl)c(N)c1Cl", "melting point": "122 to 136 °C"}

Exercise: What melting point value was documented for this compound, "COC(=O)c1nc(-c2cccnc2)c(F)c(N)c1Cl" ?
Solution: 163 to 164 °C

Exercise: Name the reported melting point value associated with the compound "COC(=O)c1nc(-c2ccc(Cl)c(F)c2C)cc(N)c1Cl"
Solution: 128 to 134 °C

Exercise: I am curious: what melting point value has been reported for "COC(=O)c1nc(-c2ccc(C(F)F)nc2)c(F)c(N)c1Cl" ?
Solution: 144 to 146 °C

Exercise: Which melting point reading was recorded for the compound "Cc1ccc(-c2nc(C(=O)O)c(Cl)c(N)c2F)cn1" ?
Solution: 186 to 187 °C

Exercise: Param item = "COC(=O)c1nc(-c2ccc(Cl)nc2OC)cc(N)c1Cl" ; retrieve measured melting point.
Solution: 109 to 111 °C

Exercise: # lookup: melting point of "COc1c(N)nc(-c2ccc(Cl)c(F)c2C)nc1C(=O)O"
Solution: 140 to 143 °C

Exercise: Item under review: "COC(=O)c1nc(-c2ccc(C(F)(F)F)nc2C)c(F)c(N)c1Cl" . Reported melting point?
Solution: 160 °C
